# Tested on: MS2 coat protein
# methodNotes: apparent KD of MS2 coat protein; designed switch direction (-1 OFF switch, 1 ON switch): -1; higher = weaker reporter binding
# conditionInfo: Eterna round: R95; input ligand: none
Is apparent KD of MS2 coat protein at least 30 nM? Then t. If not, f.

| seqString | groupLabel |
| --- | --- |
| GAAAAGGUAGGAUAUACGAAAAAAAAGGGUAGAAAAAAAAAACAUGAGGAUCACCCAUGUAGAAGGACCAAAAG [salish99_ex2_r3_059] (puzzle: Exclusion 2) | f |
| AAGUACCGUCACGAUAGUGAUGGUACAACAAGCAUGUAAACAUGAGGAUCACCCAUGUCCUCGAAUGCUCGUCUUAU [Sensor 3 - 66] (puzzle: Sensor v3, turn-off variant 2) | t |
| AAGAACGUAGGAUAUACAUGAGGAUCACCCAUGUGAGGAAGGAGUAGGAAGUGUGGAAGUAGAAGGACGGAGAG [JR_Exclu3_Sub076] (puzzle: Exclusion 3) | t |
| AAGAAACAUGAGGAUCACCCAUGUCAGGAUAUGAGAAGAAAGAAGAAGAAAGAAGGAAUCAGAAGGGACAAAGG [Ex 1 M6 Mod of Hoglahoo] (puzzle: Exclusion 1) | t |
| AGUACUAACACGAUAGUGUUAGUACUAUAAGCUUGUGUUACAUGAGGAUCACCCAUGUCCUCAUAAGCUCGUCUUAA [Mat - Sensor v3 - Turn-off var 2 - D65] (puzzle: Sensor v3, turn-off variant 2) | t |

*Q* Threshold query (apparent KD of MS2 coat protein >= 30 nM) on GAUCUGACAGGAUAUACAUGAGGAUCACCCAUGUGCGUGCUAGCGAAAGCUAGCGCAGGUAGAAGGGUCAGAUC [Ex3 dot plot directed v4] (puzzle: Exclusion 3)
*A* f

*Q* Threshold query (apparent KD of MS2 coat protein >= 30 nM) on GAAAAGGUAGGAUAUACGAAAAUAAAGGGUAGAAAUAAAACACAUGAGGAUCACCCAUGUAGAAGGACCAAAAG [salish99_ex2_r3_096] (puzzle: Exclusion 2)
*A* f
